Test system: HMM-mfMSR1 (monkey MSR1 extracellular domain)
Sequence (as listed by the source): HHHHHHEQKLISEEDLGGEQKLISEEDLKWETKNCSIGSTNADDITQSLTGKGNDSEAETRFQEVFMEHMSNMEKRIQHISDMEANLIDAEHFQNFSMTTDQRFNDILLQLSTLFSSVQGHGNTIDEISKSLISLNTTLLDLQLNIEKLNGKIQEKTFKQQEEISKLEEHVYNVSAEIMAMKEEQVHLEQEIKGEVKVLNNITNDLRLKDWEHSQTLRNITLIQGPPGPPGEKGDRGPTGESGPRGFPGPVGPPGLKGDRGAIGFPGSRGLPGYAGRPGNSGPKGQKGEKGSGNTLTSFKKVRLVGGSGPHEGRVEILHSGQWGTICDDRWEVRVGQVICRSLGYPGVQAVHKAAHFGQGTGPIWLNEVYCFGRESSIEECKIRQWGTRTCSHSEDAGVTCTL
Test: Biacore surface plasmon resonance binding kinetics of anti-MSR1 mAbs, antibody-capture format
Settings: 37° C.; analyte HMM-mfMSR1; antibody-capture format; NB = no binding observed
Method: Binding affinities and kinetic constants of human anti-MSR1 antibodies for different MSR1 reagents were determined by real-time surface plasmon resonance (Biacore 4000). […] The association rate (ka) and dissociation rate (kd) were determined by fitting the real-time binding sensorgrams to a 1:1 binding model with mass transport limitation using Scrubber 2.0c curve-fitting software. […]
Readout type: ka
Reply with the number and its unit after it.

# lookup: ka of H1H27754P-N297Q: one of "Twelve anti-MSR1 antibodies"; "made with an N297Q single point mutation in human Fcγ portion" (antibody, V domains shown) VH: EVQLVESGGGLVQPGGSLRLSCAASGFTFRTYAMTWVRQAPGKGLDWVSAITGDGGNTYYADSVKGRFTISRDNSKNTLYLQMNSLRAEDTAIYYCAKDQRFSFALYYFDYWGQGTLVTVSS VL: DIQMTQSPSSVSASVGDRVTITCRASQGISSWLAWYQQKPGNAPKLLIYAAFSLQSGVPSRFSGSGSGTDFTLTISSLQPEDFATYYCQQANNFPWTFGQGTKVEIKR
701000 M⁻¹ s⁻¹
